Taken from paper PMC9604255.

- Test system: PC-3 cancer cells
- experiment_description: MTT antiproliferative assay, PC-3
- Format: cell-based, human
- setup_conditions: Homo sapiens; MTT assay after 48 h
Note to self: use Fulfilled only for IC50 readings below 40 µM; a reading exactly at 40 µM still gets Not fulfilled.

Answered examples (4):
>>> group("O=C(/C=C/c1ccccc1)NNC(=O)/C=C/c1ccccc1Cl [I3]")
"Fulfilled"
>>> group("COc1cccc(/C=C/C(=O)NNC(=O)/C=C/c2ccccc2)c1 [I6]")
"Not fulfilled"
>>> group("COc1cc(/C=C/C(=O)NNC(=O)/C=C/c2ccccc2)ccc1O [I15]")
"Not fulfilled"
>>> group("Cc1ccc(/C=C/C(=O)NNC(=O)/C=C/c2ccccc2)cc1 [I10]")
"Not fulfilled"

Challenge: Determine whether this molecule shows IC50 lower than 40 µM (ties excluded): CCOc1ccc(/C=C/C(=O)NNC(=O)/C=C/c2ccccc2)cc1 [I13]
Response given: Fulfilled
